Target: T1, SHANK1, Q9Y566
T1 sequence (Q9Y566 658-767, limits assumed, looked up): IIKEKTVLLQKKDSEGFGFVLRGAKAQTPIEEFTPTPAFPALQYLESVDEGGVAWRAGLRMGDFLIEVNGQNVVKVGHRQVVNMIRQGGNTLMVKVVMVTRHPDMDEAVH
Test: holdup assay
Parameters: key: below the threshold = too weak to quantify, mostly under pKd 3.1 to 4
Conditions: plain residues with an end cap or a label only (N-terminal biotin on a linker: ado-ado)
quantity.name: pKd

Past entries and their recorded results:
Asked: // returns reported pKd for input VLYPREGTEV [FOXI1, Q12951]
Given back: 3.49

Asked: Request the reported pKd associated with QRPYRRGSEI [KCNJ18, B7U540]
Given back: below the threshold

Asked: Entry TNSRHGETTV [FZD2, Q14332] has what pKd?
Given back: below the threshold

Asked: Quick one: pKd for LKDDELKTKL [SLCO1A2, P46721] ?
Given back: 5.62

Asked: So what's the measured pKd for this one? NTLNRKTTPV [CACNG8, Q8WXS5]
Given back: below the threshold

Asked: pKd lookup needed for REEPDHSTEV [CCRL2, O00421] , thanks.
Given back: 4.13

Asked: Suppose we examine the binder VKRNSKETVV [MARCHF3, Q86UD3] ; what pKd value has been reported?
Given back: below the threshold

Query binder follows.
Asked: Recorded pKd for PPGKHLVTEV [KCNA7, Q96RP8] , please?
Given back: 3.71
